// data source = the OPERA property sets (Mansouri et al. 2018)

Conditions: pH 6.2; 20 °C

- compound: "CCOC(=O)C1=NN(c2ccc(Cl)cc2Cl)C(C)(C(=O)OCC)C1 (stereo unspecified)"
  solubility (µM): 53.6

====

Conditions: 25 °C
endpoint: solubility (µM)

- molecule: "CCOP(=O)(SC(C)CC)SC(C)CC (stereo not drawn)"
  recorded_number: 917
- molecule: "CNc1cnn(-c2cccc(C(F)(F)F)c2)c(=O)c1Cl"
  recorded_number: 111
- molecule: "CC(C)=C1OC(=O)N(c2cc(OC3CCCC3)c(Cl)cc2F)C1=O"
  recorded_number: 0.611

====

Conditions: pH 7.0
Measured logD, listed per entry.
endpoint: logD

- smiles_record: "C[N+]1(C)CCCCC1.[Cl-]"
  endpoint: "logD"
  recorded_number: -2.82
- smiles_record: "COC(=O)c1c(Cl)nn(C)c1S(=O)(=O)NC(=O)Nc1nc(OC)cc(OC)n1"
  endpoint: "logD"
  recorded_number: -0.02

====

Conditions: 20 °C
Here, each record is paired with measured solubility data.

- molecule: "CNC(=O)ON=C(C)C(C)SC (configuration not stated)"
  units_label: "µM"
  solubility: 184000
- molecule: "O=C([O-])C(F)(F)C(F)F.[Na+]"
  units_label: "µM"
  solubility: 131000
- molecule: "O=[n+]1[n-]c(-n2ccnc2)nc2ccc(Cl)cc21"
  units_label: "µM"
  solubility: 137
- molecule: "FC(F)(F)C(=NOCC1OCCO1)c1ccc(Cl)cc1"
  units_label: "µM"
  solubility: 96.9
- molecule: "Cc1cccc(C)c1N(C(=O)CCl)C1CCOC1=O (configuration not stated)"
  units_label: "µM"
  solubility: 518
- molecule: "CON=C(C)c1cccc(Oc2nc(OC)cc(OC)n2)c1C(=O)OC"
  units_label: "µM"
  solubility: 249
- molecule: "COc1ccsc1CN(C(=O)CCl)c1c(C)cccc1C"
  units_label: "µM"
  solubility: 34
- molecule: "COCCN(C(=O)CCl)c1c(C)cccc1C"
  units_label: "µM"
  solubility: 8590
- molecule: "CCCOCCN(C(=O)CCl)c1c(CC)cccc1CC"
  units_label: "µM"
  solubility: 160
- molecule: "CCOCCOC(=O)C(C)Oc1ccc(Oc2ncc(C(F)(F)F)cc2Cl)cc1 (configuration not stated)"
  units_label: "µM"
  solubility: 1.34
- molecule: "O=S(=O)(c1ccc(Cl)cc1)c1cc(Cl)c(Cl)cc1Cl"
  units_label: "µM"
  solubility: 0.219
- molecule: "CC(C)OC(=O)c1cc(C(=O)OC(C)C)cc([N+](=O)[O-])c1"
  units_label: "µM"
  solubility: 9.14

====

- compound: "CCOP(=S)(OCC)Oc1ccc(=O)n(-c2ccccc2)n1"
  logP: 3.2
- compound: "CCCCOCCOCCOCc1cc2c(cc1CCC)OCO2"
  logP: 4.75
- compound: "C#CCN1CC(=O)N(COC(=O)[C@@H]2[C@@H](C=C(C)C)C2(C)C)C1=O"
  logP: 2.9
- compound: "CCCN(CCC)c1c([N+](=O)[O-])cc(C(F)(F)F)c(N)c1[N+](=O)[O-]"
  logP: 4.1
- compound: "O=c1oc2ccccc2c(O)c1C1CC(c2ccc(-c3ccc(Br)cc3)cc2)Cc2ccccc21 (stereo unspecified)"
  logP: 8.5
- compound: "O=[n+]1[n-]c(-n2ccnc2)nc2ccc(Cl)cc21"
  logP: 2.04
